Test system: H. glycines second-stage juveniles
assay-name: Microwell assay: previously hatched J2 immersed in compounds, activity and viability
applied-conditions: 0.1%; Day 3 following water rinse
experimental-endpoint: reduction in % viable J2 compared with the Tween control (%)
Answer format: numeric, % implied, no suffix.

Any idea what reduction in % viable J2 compared with the Tween control was measured for COC(=O)c1ccccc1Cl [M2CB, Methyl 2-chlorobenzoate] ?
99

Any idea what reduction in % viable J2 compared with the Tween control was measured for O=C(OCc1ccccc1)c1ccccc1 [BB, Benzyl benzoate] ?
33

Any idea what reduction in % viable J2 compared with the Tween control was measured for COC(=O)c1ccccc1 [MB, Methyl benzoate] ?
100

Any idea what reduction in % viable J2 compared with the Tween control was measured for C=COC(=O)c1ccccc1 [VB, Vinyl benzoate] ?
100

Any idea what reduction in % viable J2 compared with the Tween control was measured for CC(C)COC(=O)c1ccccc1 [iBB, iso-Butyl benzoate] ?
43

Any idea what reduction in % viable J2 compared with the Tween control was measured for COC(=O)c1ccccc1[N+](=O)[O-] [M2NB, Methyl 2-nitrobenzoate] ?
51

* * *

So I've got a bunch of compounds here, and I need their Hatch Day 5 values.
Test system: M. incognita eggs
assay-name: Microwell assay: eggs immersed in compounds, hatch and activity of hatched J2
Type: in vivo, Meloidogyne incognita
applied-conditions: 0.1%; hatched J2 per well, about 35 eggs per well
Marks after values point to notes of the source that are not given here.

Any idea what Hatch Day 5 was measured for CC(C)COC(=O)c1ccccc1 [iBB, iso-Butyl benzoate] ?
7.2 ^bcd

Any idea what Hatch Day 5 was measured for COC(=O)c1ccccc1Cl [M2CB, Methyl 2-chlorobenzoate] ?
1.7 ^e

Any idea what Hatch Day 5 was measured for O=C(OCc1ccccc1)c1ccccc1 [BB, Benzyl benzoate] ?
4.2 ^cde

Any idea what Hatch Day 5 was measured for COC(=O)c1ccccc1[N+](=O)[O-] [M2NB, Methyl 2-nitrobenzoate] ?
12.1 ^b

Any idea what Hatch Day 5 was measured for COC(=O)c1cccc(OC)c1 [M3MOB, Methyl 3-methoxybenzoate] ?
2.7 ^de

Any idea what Hatch Day 5 was measured for CCCCOC(=O)c1ccccc1 [nBB, n-Butyl benzoate] ?
4.1 ^cde

Any idea what Hatch Day 5 was measured for C=COC(=O)c1ccccc1 [VB, Vinyl benzoate] ?
2.9 ^cde

Any idea what Hatch Day 5 was measured for COC(=O)c1ccccc1C [M2MB, Methyl 2-methylbenzoate] ?
6.6 ^bcd

* * *

System: cucumber (Cucumis sativus) plants
assay-name: Greenhouse trial: cucumber plant vigor in treated soil
applied-conditions: 0.1%; 28 ml per 300 grams soil
So I've got a bunch of compounds here, and I need their Shoot fresh weight Trial 2 values.

Any idea what Shoot fresh weight Trial 2 was measured for C=COC(=O)c1ccccc1 [VB, Vinyl benzoate] ?
3.1 ^b g

Any idea what Shoot fresh weight Trial 2 was measured for CCOC(=O)c1ccccc1 [EB, Ethyl benzoate] ?
4.0 ^ab g

Any idea what Shoot fresh weight Trial 2 was measured for COC(=O)c1cccc(C)c1 [M3MB, Methyl 3-methylbenzoate] ?
3.6 ^ab g

Any idea what Shoot fresh weight Trial 2 was measured for COC(=O)c1ccccc1 [MB, Methyl benzoate] ?
4.0 ^ab g

* * *

So I've got a bunch of molecules here, and I need their Shoot fresh weight Trial 1 values.
Test system: cucumber (Cucumis sativus) plants
assay-name: Greenhouse trial: cucumber plant vigor in treated soil
applied-conditions: 0.05%; 27 ml per 300 grams soil

Any idea what Shoot fresh weight Trial 1 was measured for COC(=O)c1cccc(C)c1 [M3MB, Methyl 3-methylbenzoate] ?
3.3 ^a g

Any idea what Shoot fresh weight Trial 1 was measured for C=COC(=O)c1ccccc1 [VB, Vinyl benzoate] ?
3.2 ^a g

Any idea what Shoot fresh weight Trial 1 was measured for CCOC(=O)c1ccccc1 [EB, Ethyl benzoate] ?
2.8 ^a g

Any idea what Shoot fresh weight Trial 1 was measured for COC(=O)c1ccccc1 [MB, Methyl benzoate] ?
3.2 ^a g
